FYI, the data here is from ChEMBL document CHEMBL1201862.

GI50: recorded values
# System: MOLT-4
# assay protocol: NCI tumour cell line growth inhibition, 48 h
Active and inactive are the calls of the source. Rule as the data show it: active = GI50 up to about 1.1 µM and inactive = higher.

O=C1C=CC(CC(=O)c2ccc3ccccc3c2)O1 (stereo unspecified) ... 21.7 µM (inactive)
CN(/N=C/C=N/N(C)C1=NCCCN1)C1=NCCCN1 ... > 100 µM (inactive)
CN(C)CCNc1nc2ccccc2c2c1CCCC2 ... 23.2 µM (inactive)
O=C1C(c2c(O)[nH]c3ccc(Cl)cc23)=Nc2ccccc21 ... > 47 µM (inactive)
CC1=C2C(c3ccccc3)(c3ccccc3)C3C=CC2(C=N3)N(C(=O)NC2CCCCC2)C1=O (stereo unspecified) ... 17.4 µM (inactive)

Could you now consider this next compound?
Query: Kindly indicate its recorded GI50. Item: Nn1c(CCCCCCCCc2nnc(COc3ccccc3)n2N)nnc1COc1ccccc1
Result: > 100 µM (inactive)
